# Target entity: BRD4^BD1 (Homo sapiens, UniProt O60885)
# Construct: to the isolated BD1 and BD2 domains of BRD2, BRD3 and BRD4
# Experiment notes: competitive fluorescence polarization assay, BRD4 BD1 -/+ presenter protein
# Assay type: binding
# Particulars: presence of 15 µM FKBP12; read-out: Binding to BRD4^BD1 + FKBP12 Kd (converted)
Listed molecules paired with reported Kd
Readout type: Kd (nM)

{"columns": ["Molecule", "Target entity", "Unit info", "Result number"],
 "data": [
  ["Cc1sc2c(c1C)C(c1ccc(Cl)cc1)=NC(CC(=O)NCCOCCn1cc(COCC3CN(C(C)c4ccccn4)C(=O)C4CCCC3N4S(=O)(=O)c3cc(Cl)cc(Cl)c3)nn1)c1nnc(C)n1-2 (stereo not drawn) [a1dj]", "BRD4^BD1 (Homo sapiens, UniProt O60885)", "nM", 39],
  ["Cc1sc2c(c1C)C(c1ccc(Cl)cc1)=NC(CC(=O)N1CC(CN3CCC(n4cc(C5CN(Cc6ccccn6)C(=O)C6CCCC5N6S(=O)(=O)c5cc(Cl)cc(Cl)c5)nn4)CC3)C1)c1nnc(C)n1-2 (stereo not drawn) [a11c]", "BRD4^BD1 (Homo sapiens, UniProt O60885)", "nM", 190],
  ["Cc1sc2c(c1C)C(c1ccc(Cl)cc1)=NC(CC(=O)NCCOCCn1cc(COCC3CN(Cc4ccccn4)C(=O)C4CCCC3N4S(=O)(=O)c3cc(Cl)cc(Cl)c3)nn1)c1nnc(C)n1-2 (stereo not drawn) [a1d]", "BRD4^BD1 (Homo sapiens, UniProt O60885)", "nM", 25]
]}
